Source listed as PubChem BioAssay (NCI).

System: BT-549 breast
Assay: NCI tumour cell line growth inhibition, 48 h
Below is a list of entries, each paired with its recorded GI50 value.
Recorded metric: GI50

* CC(C)OC(=O)c1ccc2[nH]c(O)c(C(=Nc3ccc(N(C)C(=O)CN4CCN(C)CC4)cc3)c3ccccc3)c2c1 | 1280 nM
* CS(=O)(=O)Nc1cc(-c2ccc3ncnc(Nc4ccc5c(cnn5Cc5ccc(F)cc5)c4)c3c2)cnc1Cl | 957 nM
* CCN1C(=O)N(CC)C2C1NN=c1s/c(=C3\C(=O)N(C)c4ccccc43)c(=O)n12 (centres undefined) | 1390 nM
* O=c1oc2ccc(Cl)cc2c(=O)n1-c1ccc(I)cc1F | 168 nM
* CCOC(=O)c1c(C)n(Cc2ccc(Cl)cc2Cl)c2c1cc1oc(=O)c(=O)n3c(Cc4ccccc4)nc2c13 | 2550 nM
* Cc1c(C)c2ccc(OC/C=C3\CCC(=O)O3)cc2oc1=O | 15200 nM
* CCCCC[C@H]1C/C=C2/C(=O)C(Cl)=C[C@@H]2C/C=C\CCCC(=O)O[C@@H](CCCCC)C/C=C2/C(=O)C(Cl)=C[C@@H]2C/C=C\CCCC(=O)O1 | 330 nM
* COc1ccccc1-c1c(C)nn2c(NCc3ccccn3)cc(C)nc12 | > 37300 nM
* CCc1c[nH]c2ncnc(N3CC[C@@](N)(CNC(=O)c4ccc(F)cc4F)C3)c12 | 17000 nM
